test system: CAL-85-1; assay: drug sensitivity score (DSS), CellTiter-Glo (DSS (AUC-based score)); higher = stronger drug effect (viability inhibition or cytotoxicity); extreme values may be limits of the assay; details: incubation time: 72 h
What drug sensitivity score was measured for each of the following?
Give bare numbers.

> print(dat)
                                   compound  measured.target  observed.result
1  CC(O)(CS(=O)(=O)c1ccc(F)cc1)C(=O)Nc1ccc(C#N)c(C(F)(F)F)c1 (stereo not given) [Bicalutamide]         CAL-85-1                0
2  COc1cc(Nc2c(C#N)cnc3cc(OCCCN4CCN(C)CC4)c(OC)cc23)c(Cl)cc1Cl [Bosutinib]         CAL-85-1             9.16
3  O=C(O)CNC(=O)c1c(O)c2ccccc2n(Cc2ccccc2)c1=O [IOX-2]         CAL-85-1                0
4  CO[C@@H]1[C@H](N(C)C(=O)c2ccccc2)C[C@H]2O[C@]1(C)n1c3ccccc3c3c4c(c5c6ccccc6n2c5c31)C(=O)NC4 [Midostaurin]         CAL-85-1             2.25

Problem: Tell us which drug sensitivity score value is on record for CCNC(=O)CCC/C=C\C[C@@H]1[C@@H](/C=C/[C@@H](O)CCc2ccccc2)[C@H](O)C[C@@H]1O [Bimatoprost]
Solution: 0

###

test system: MDA-MB-468; assay: normalised response (% of control), CellTox Green; higher = less cell death (100 = DMSO, 0 = benzethonium chloride kill control); settings: incubation time: 72 h
We use 80% as the dividing line for normalised response: on or above the line is criterion met, below is criterion not met.

> print(dat)
                                   molecule           category
1  CCNC(=O)c1noc(-c2cc(C(C)C)c(O)cc2O)c1-c1ccc(CN2CCOCC2)cc1 [NVP-AUY922] (100 nM)  criterion not met
2  C=CCN(/C=C1/C(=O)O[C@H](COC)[C@@]2(C)C1=C(O)C(=O)C1=C2[C@H](OC(C)=O)C[C@]2(C)C(=O)CC[C@@H]12)CC=C [Sonolisib] (100 nM)      criterion met
3  O=[N+]([O-])c1ccc2c(c1)S(=O)(=O)C=C2 [Stattic] (500 nM)      criterion met
4  CCN(CC)CCCC(C)Nc1ccnc2cc(Cl)ccc12 (configuration not stated) [Chloroquine] (100000 nM)  criterion not met
5  Cn1cc(C2=C(c3cn(C4CCN(Cc5ccccn5)CC4)c4ccccc34)C(=O)NC2=O)c2ccccc21 [Enzastaurin] (1000 nM)      criterion met

Okay, next one:
Problem: Tell me whether normalised response is at least 80% here: Cc1cc(Nc2nc(N[C@@H](C)c3ncc(F)cn3)ncc2Cl)[nH]n1 [AZD1480] (1000 nM)
Solution: criterion met

###

system: HCC1937; experiment: normalised response (% of control), CellTiter-Glo; higher = more viable cells (100 = DMSO, 0 = benzethonium chloride kill control); settings: incubation time: 72 h
OBSERVABLE: normalised response (%)
Answers are plain numbers, in %.

COMPOUND	MEASURED_TARGET	normalised response [%]
O=[N+]([O-])c1ccc2c(c1)S(=O)(=O)C=C2 [Stattic] (50 nM)	HCC1937	102
C/C(=C\c1csc(C)n1)[C@@H]1C[C@@H]2O[C@]2(C)CCC[C@H](C)[C@H](O)[C@@H](C)C(=O)C(C)(C)[C@@H](O)CC(=O)N1 [Ixabepilone] (100 nM)	HCC1937	102
CCNC(=O)c1noc(-c2cc(C(C)C)c(O)cc2O)c1-c1ccc(CN2CCOCC2)cc1 [NVP-AUY922] (1 nM)	HCC1937	102
CC[C@H](CO)Nc1nc(NCc2ccccc2)c2ncn(C(C)C)c2n1 [Seliciclib] (1 nM)	HCC1937	97.3
Cn1cc(C2=C(c3cn(C4CCN(Cc5ccccn5)CC4)c4ccccc34)C(=O)NC2=O)c2ccccc21 [Enzastaurin] (1000 nM)	HCC1937	98.4
CN(C)C(=N)NC(=N)N [Metformin] (10000 nM)	HCC1937	99.5
CC1(COc2ccc3c(c2)ncn3-c2ccc3cccc(N4CCC(N)CC4)c3n2)COC1 [Crenolanib] (10 nM)	HCC1937	104

Now turn to the next compound.
Problem: State measured normalised response of the compound CC(C)n1cnc2c(NCCc3ccc(O)cc3)nc(-c3csc4ccccc34)nc21 [StemRegenin 1] (1 nM) with HCC1937.
Solution: 98.6

###

What normalised response was measured for each of the following?
system: MDA-MB-231; experiment: normalised response (% of control), CellTiter-Glo; higher = more viable cells (100 = DMSO, 0 = benzethonium chloride kill control); settings: incubation time: 72 h
Enter the number, and then the unit.

For each of the compounds below, state normalised response.
1. CN(C)C(=N)NC(=N)N [Metformin] (1000 nM)
2. CC(C)(C)NC(=O)[C@H]1CC[C@H]2[C@@H]3CC[C@H]4NC(=O)C=C[C@]4(C)[C@H]3CC[C@]12C [Finasteride] (100 nM)
3. CN[C@@H](C)C(=O)N[C@H]1CN(C(=O)CC(C)C)CC[C@H]2CC[C@@H](C(=O)NC(c3ccccc3)c3ccccc3)N2C1=O [AT-406] (100 nM)
4. COc1cc(Nc2c(C#N)cnc3cc(OCCCN4CCN(C)CC4)c(OC)cc23)c(Cl)cc1Cl [Bosutinib] (100 nM)
5. CCn1c(C(=O)N(C2CC2)C2CC2)cc2c3c(ncn3C)c(Nc3cc(C)n(C)n3)nc21 (100 nM)

Solution:
["94.1%", "104%", "63.9%", "100%", "99.7%"]

###

tested on: CAL-148; experiment: drug sensitivity score (DSS), CellTox Green (DSS (AUC-based score)); higher = stronger drug effect (viability inhibition or cytotoxicity); extreme values may be limits of the assay; conditions: incubation time: 72 h
OBSERVABLE: drug sensitivity score
Give bare numbers.

MOLECULE	drug sensitivity score
Cn1cc(C2=C(c3cn(C4CCN(Cc5ccccn5)CC4)c4ccccc34)C(=O)NC2=O)c2ccccc21	0
C=CCn1c(=O)c2cnc(Nc3ccc(N4CCN(C)CC4)cc3)nc2n1-c1cccc(C(C)(C)O)n1	21.1
O=[N+]([O-])c1ccc2c(c1)S(=O)(=O)C=C2	9.88
Nc1ccn([C@@H]2O[C@H](CO)[C@@H](O)C2(F)F)c(=O)n1	11.2
CCNC(=O)CCC/C=C\C[C@@H]1[C@@H](/C=C/[C@@H](O)CCc2ccccc2)[C@H](O)C[C@@H]1O	0

For each of the molecules below, state drug sensitivity score.
1. CC1(C)CCC(c2ccc(Cl)cc2)=C(CN2CCN(c3ccc(C(=O)NS(=O)(=O)c4ccc(N[C@H](CCN5CCOCC5)CSc5ccccc5)c(S(=O)(=O)C(F)(F)F)c4)cc3)CC2)C1
2. O=C(O)CNC(=O)c1c(O)c2ccccc2n(Cc2ccccc2)c1=O
3. CNC(=O)c1ccccc1Sc1ccc2c(/C=C/c3ccccn3)n[nH]c2c1
4. C=CCN(/C=C1/C(=O)O[C@H](COC)[C@@]2(C)C1=C(O)C(=O)C1=C2[C@H](OC(C)=O)C[C@]2(C)C(=O)CC[C@@H]12)CC=C

Solution:
[4.49, 0, 2.44, 0]

###

test system: HDQ-P1; experiment: normalised viability (% of control), CellTiter-Blue; higher = more viable cells (about 100 = DMSO control); conditions: 10 nM; incubation time: 72 h
What normalised viability was measured for each of the following?
One number for each entry, in %.

COMPOUND	UOM	OBSERVED_RESULT
CC(C)C[C@H](NC(=O)[C@@H](COC(C)(C)C)NC(=O)[C@H](Cc1ccc(O)cc1)NC(=O)[C@H](CO)NC(=O)[C@H](Cc1c[nH]c2ccccc12)NC(=O)[C@H](Cc1cnc[nH]1)NC(=O)[C@@H]1CCC(=O)N1)C(=O)N[C@@H](CCCNC(=N)N)C(=O)N1CCC[C@H]1C(=O)NNC(N)=O [Goserelin]	%	117

Now turn to the next compound.
Problem: Tell us which normalised viability value is on record for CO[C@@H]1[C@H](N(C)C(=O)c2ccccc2)C[C@H]2O[C@]1(C)n1c3ccccc3c3c4c(c5c6ccccc6n2c5c31)C(=O)NC4 [Midostaurin]
Solution: 85.3

###

What normalised response was measured for each of the following?
tested on: CAL-85-1; experiment: normalised response (% of control), CellTiter-Glo; higher = more viable cells (100 = DMSO, 0 = benzethonium chloride kill control); conditions: incubation time: 72 h
Give bare numbers, in %.

COMPOUND	OBSERVED_RESULT
CC1(C)CCC(c2ccc(Cl)cc2)=C(CN2CCN(c3ccc(C(=O)NS(=O)(=O)c4ccc(N[C@H](CCN5CCOCC5)CSc5ccccc5)c(S(=O)(=O)C(F)(F)F)c4)cc3)CC2)C1 [Navitoclax] (10 nM)	97
CN[C@@H](C)C(=O)N[C@H]1CN(C(=O)CC(C)C)CC[C@H]2CC[C@@H](C(=O)NC(c3ccccc3)c3ccccc3)N2C1=O [AT-406] (10 nM)	97.8
CCn1c(C(=O)N(C2CC2)C2CC2)cc2c3c(ncn3C)c(Nc3cc(C)n(C)n3)nc21 (1000 nM)	99.5
CC1(COc2ccc3c(c2)ncn3-c2ccc3cccc(N4CCC(N)CC4)c3n2)COC1 [Crenolanib] (1000 nM)	117
CC1(COc2ccc3c(c2)ncn3-c2ccc3cccc(N4CCC(N)CC4)c3n2)COC1 [Crenolanib] (10 nM)	99.2

For each of the compounds below, state normalised response.
1. CC1(COc2ccc3c(c2)ncn3-c2ccc3cccc(N4CCC(N)CC4)c3n2)COC1 [Crenolanib] (1 nM)
2. CC(C)(C)NC(=O)[C@H]1CC[C@H]2[C@@H]3CC[C@H]4NC(=O)C=C[C@]4(C)[C@H]3CC[C@]12C [Finasteride] (10 nM)
3. CN(Cc1cnc2nc(N)nc(N)c2n1)c1ccc(C(=O)N[C@@H](CCC(=O)O)C(=O)O)cc1 [Methotrexate] (5000 nM)
4. CCNC(=O)c1noc(-c2cc(C(C)C)c(O)cc2O)c1-c1ccc(CN2CCOCC2)cc1 [NVP-AUY922] (100 nM)

Solution:
96.6
98.7
51.4
20.5

For each of the compounds below, state normalised response.
1. CC(C)C[C@H](NC(=O)[C@@H](COC(C)(C)C)NC(=O)[C@H](Cc1ccc(O)cc1)NC(=O)[C@H](CO)NC(=O)[C@H](Cc1c[nH]c2ccccc12)NC(=O)[C@H](Cc1cnc[nH]1)NC(=O)[C@@H]1CCC(=O)N1)C(=O)N[C@@H](CCCNC(=N)N)C(=O)N1CCC[C@H]1C(=O)NNC(N)=O [Goserelin] (1000 nM)
2. C=CCN(/C=C1/C(=O)O[C@H](COC)[C@@]2(C)C1=C(O)C(=O)C1=C2[C@H](OC(C)=O)C[C@]2(C)C(=O)CC[C@@H]12)CC=C [Sonolisib] (1000 nM)

Solution:
1: 98.2; 2: 105

Problem: Tell us which normalised response value is on record for CC(C)C[C@H](NC(=O)[C@@H](COC(C)(C)C)NC(=O)[C@H](Cc1ccc(O)cc1)NC(=O)[C@H](CO)NC(=O)[C@H](Cc1c[nH]c2ccccc12)NC(=O)[C@H](Cc1cnc[nH]1)NC(=O)[C@@H]1CCC(=O)N1)C(=O)N[C@@H](CCCNC(=N)N)C(=O)N1CCC[C@H]1C(=O)NNC(N)=O [Goserelin] (10 nM)
Solution: 93.8
